- System: S. hsui pb1a-like
- Assay Summary: control-subtracted net OSN firing rate; higher = stronger neuronal activation
- Stated Conditions: odorant dilution (vol/vol): 10^-3
Recorded Endpoint: control-subtracted net OSN firing rate (spikes/s)
Return type: number; implicit unit spikes/s.

Below, 2 compounds whose answers are already recorded.
| Compound | control-subtracted net OSN firing rate (spikes/s) |
| --- | --- |
| CCC/C=C/C=O [trans-2-hexenal] | 55.7 |
| CCC1CCC(=O)O1 (centres undefined) | 128 |

// Input: C=CCN=C=S [allyl isothiocyanate] . Output its control-subtracted net OSN firing rate only.
51.2

// Input: CCCC(=O)OCC [ethyl butyrate] . Output its control-subtracted net OSN firing rate only.
118

---

- Tested on: S. flava pb1a-like
- Assay Summary: control-subtracted net OSN firing rate; higher = stronger neuronal activation
- Stated Conditions: odorant dilution (vol/vol): 10^-3
Recorded Endpoint: control-subtracted net OSN firing rate (spikes/s)
Return type: number; implicit unit spikes/s.

| Compound | Endpoint Value |
| --- | --- |
| CCC/C=C/C=O [trans-2-hexenal] | 159 |

// Input: CCCC(=O)OCC [ethyl butyrate] . Output its control-subtracted net OSN firing rate only.
170

// Input: CCC(C)N=C=S (configuration not stated) [sec-butyl isothiocyanate] . Output its control-subtracted net OSN firing rate only.
19.7

// Input: CCCCN=C=S [butyl isothiocyanate] . Output its control-subtracted net OSN firing rate only.
65.7

// Input: C=CCN=C=S [allyl isothiocyanate] . Output its control-subtracted net OSN firing rate only.
117

// Input: CC(C)CN=C=S [isobutyl isothiocyanate] . Output its control-subtracted net OSN firing rate only.
93

// Input: CCC1CCC(=O)O1 (configuration not stated) [γ-hexalactone] . Output its control-subtracted net OSN firing rate only.
42.6

---

- Test system: S. flava pb1a-like
- Assay Summary: control-subtracted net OSN firing rate; higher = stronger neuronal activation
- Stated Conditions: odorant dilution (vol/vol): 10^-4
Recorded Endpoint: control-subtracted net OSN firing rate
Note to self: number, then unit, no commentary.

Below, 2 molecules whose answers are already recorded.
| Molecule | Target Desc | Endpoint Value |
| --- | --- | --- |
| C=CCN=C=S [allyl isothiocyanate] | S. flava pb1a-like | 50 spikes/s |
| CCCCN=C=S [butyl isothiocyanate] | S. flava pb1a-like | 21.7 spikes/s |

Could you now consider this next molecule?
Print S. flava pb1a-like control-subtracted net OSN firing rate for CCC1CCC(=O)O1 (stereo not drawn) [γ-hexalactone] .
3.14 spikes/s

Where do the numbers come from? From the supplement of paper PMC11482750.
